Taken from paper PMC11694611.

Molecular target: recombinant His-tagged FLT3 kinase domain (aa 569–992) (Homo sapiens)
Construct: FLT3 kinase domain (aa 569–992); His; made in house; host or cells: Sf9 cells
Sequence (P36888 569-992): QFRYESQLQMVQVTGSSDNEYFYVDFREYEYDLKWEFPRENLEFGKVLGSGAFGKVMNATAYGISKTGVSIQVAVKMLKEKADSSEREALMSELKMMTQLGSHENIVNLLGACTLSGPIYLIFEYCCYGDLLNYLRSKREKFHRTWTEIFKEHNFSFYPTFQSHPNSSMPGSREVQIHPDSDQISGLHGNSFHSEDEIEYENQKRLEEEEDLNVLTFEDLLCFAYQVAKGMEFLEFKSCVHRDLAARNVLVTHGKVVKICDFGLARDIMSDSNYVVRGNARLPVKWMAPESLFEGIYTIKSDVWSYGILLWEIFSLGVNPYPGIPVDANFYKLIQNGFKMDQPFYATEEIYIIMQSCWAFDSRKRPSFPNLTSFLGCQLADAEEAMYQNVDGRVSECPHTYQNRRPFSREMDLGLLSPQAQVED
Assay: ELISA-based in vitro FLT3 kinase assay
Assay type: biochemical
Settings: Table 2; recombinant FLT3, 300 μM ATP; read-out: FLT3 Kinase (IC50, mean±SEM)
pIC50: −log10 of the molar value.
observable: pIC50

[P] OB(O)Cn1cc(-c2cccs2)nn1 [4 j]
[Q] CS(=O)(=O)NCc1cn(CB(O)O)nn1 [4 p]
[Q] Thinking about recorded pIC50 values, which is higher, P or Q ? I would appreciate it if you answered with the label of your choice.
[A] Q
(Q: 4.38, P: 4.12)

---

Listed here are molecules together with their documented IC50.
Test system: FLT3-wild type HL60 cells
Test: Cytotoxicity by MTS assay, control cell line HL60
Assay type: cell-based
Details: Homo sapiens, HL-60; Table 3; FLT3-wild type control cell line; read-out: HL60 (IC50, mean±SEM)

Worked examples, 2 molecules total:
smiles_structure=Cc1ccc(S(=O)(=O)Nc2cccc(-c3cn(CB(O)O)nn3)c2)cc1 observable=IC50 test_result="> 100 µM"
smiles_structure=Nc1cccc(-c2cn(CB(O)O)nn2)c1 observable=IC50 test_result="> 100 µM"

We now examine a further molecule.
[Q] Give the measured IC50 of Cc1ccc(S(=O)(=O)Nc2cccc(OCc3cn(CB(O)O)nn3)c2)cc1 .
[A] > 100 µM

---

Target: recombinant His-tagged FLT3 kinase domain (aa 569–992) (Homo sapiens)
Construct: FLT3 kinase domain (aa 569–992); His; made in house; host or cells: Sf9 cells
Assay: ELISA-based in vitro FLT3 kinase assay
Format: biochemical
Conditions: Table 1; recombinant FLT3, 300 μM ATP; read-out: FLT3 Kinase Activity (IC50, mean±SEM)
pIC50: −log10 of the molar value.
observable: pIC50

[a] Nc1cccc(-c2cn(CB(O)O)nn2)c1 [4 e]
[b] OB(O)Cn1cc(-c2cccc(Cl)c2)nn1 [4 g]
[Q] Given the two records a and b , choose the one whose pIC50 value is lower. Returns: label corresponding to the selected item.
[A] b
